molecular target: IRAK4 (Homo sapiens, UniProt Q9NWZ3); assay: Assay for inhibitory effect of compound on IRAK4 kinase activity (KinEASE-STK S1 HTRF kit); assay type: biochemical; settings: kinase 8 nM, ATP 80 µM, 37°C 90 minutes; read-out: IRAK4 HTRF IC50
Sequence (Q9NWZ3 whole entry): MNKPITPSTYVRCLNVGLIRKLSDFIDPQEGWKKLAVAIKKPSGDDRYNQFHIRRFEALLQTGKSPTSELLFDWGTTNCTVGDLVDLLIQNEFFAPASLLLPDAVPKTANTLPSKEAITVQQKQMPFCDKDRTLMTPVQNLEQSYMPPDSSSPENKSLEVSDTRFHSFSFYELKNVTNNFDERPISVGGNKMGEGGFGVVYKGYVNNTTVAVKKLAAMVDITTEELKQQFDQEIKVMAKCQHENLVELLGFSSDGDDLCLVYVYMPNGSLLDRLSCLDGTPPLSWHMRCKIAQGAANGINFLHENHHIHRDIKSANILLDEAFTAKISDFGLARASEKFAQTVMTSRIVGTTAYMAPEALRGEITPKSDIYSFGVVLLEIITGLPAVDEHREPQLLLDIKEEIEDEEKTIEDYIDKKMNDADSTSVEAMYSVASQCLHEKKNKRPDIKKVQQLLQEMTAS
pIC50: −log10 of the molar value.

MOLECULE: CC(C)(O)c1cn(-c2ccccc2)nc1NC(=O)c1cccc(C(F)(F)F)n1
EXPERIMENTAL TARGET: IRAK4 (Homo sapiens, UniProt Q9NWZ3)
pIC50: < 6.00
--
MOLECULE: NC(=O)c1nn(-c2ccccc2)cc1NC(=O)c1cccc(-c2nc[nH]n2)n1
EXPERIMENTAL TARGET: IRAK4 (Homo sapiens, UniProt Q9NWZ3)
pIC50: 6.00 to 7.00
--
MOLECULE: COc1nn(C2CC3(CCNCC3)C2)cc1NC(=O)c1ccc2cc(C#N)cnn12
EXPERIMENTAL TARGET: IRAK4 (Homo sapiens, UniProt Q9NWZ3)
pIC50: > 7.00
--
MOLECULE: NC(=O)c1nn(C2CCC2)cc1NC(=O)c1ccn2ncc(-c3ccn[nH]3)c2n1
EXPERIMENTAL TARGET: IRAK4 (Homo sapiens, UniProt Q9NWZ3)
pIC50: 6.00 to 7.00
--
MOLECULE: CNC(=O)c1ccc(-n2cc(NC(=O)c3cccc(C(F)(F)F)n3)c(C(N)=O)n2)cc1
EXPERIMENTAL TARGET: IRAK4 (Homo sapiens, UniProt Q9NWZ3)
pIC50: > 7.00
--
MOLECULE: CC(C)NC(=O)c1nn(-c2ccccc2)cc1NC(=O)c1cccc(-c2ccn[nH]2)n1
EXPERIMENTAL TARGET: IRAK4 (Homo sapiens, UniProt Q9NWZ3)
pIC50: 6.00 to 7.00
--
MOLECULE: CNS(=O)(=O)c1nn(-c2ccccc2)cc1NC(=O)c1cccc(-c2ccn[nH]2)n1
EXPERIMENTAL TARGET: IRAK4 (Homo sapiens, UniProt Q9NWZ3)
pIC50: > 7.00
--
MOLECULE: CN(C)C(=O)c1ccc(-n2cc(NC(=O)c3cccc(C(F)(F)F)n3)c(C(N)=O)n2)cc1
EXPERIMENTAL TARGET: IRAK4 (Homo sapiens, UniProt Q9NWZ3)
pIC50: > 7.00
--
MOLECULE: CNC(=O)c1nn(-c2ccccc2)cc1NC(=O)c1cccc(-c2ccn[nH]2)n1
EXPERIMENTAL TARGET: IRAK4 (Homo sapiens, UniProt Q9NWZ3)
pIC50: > 7.00
--
MOLECULE: NC(=O)c1cn(-c2ccccc2)nc1NC(=O)c1cccc(C(F)(F)F)n1
EXPERIMENTAL TARGET: IRAK4 (Homo sapiens, UniProt Q9NWZ3)
pIC50: < 6.00
--
MOLECULE: CC(C)(O)c1nn(C2CCC2)cc1NC(=O)c1ccn2ncc(-c3ccn[nH]3)c2n1
EXPERIMENTAL TARGET: IRAK4 (Homo sapiens, UniProt Q9NWZ3)
pIC50: 6.00 to 7.00
--
MOLECULE: O=C(Nc1cn(-c2ccccc2)nc1C(=O)C(F)F)c1cccc(-c2ccn[nH]2)n1
EXPERIMENTAL TARGET: IRAK4 (Homo sapiens, UniProt Q9NWZ3)
pIC50: > 7.00
--
MOLECULE: O=C(Nc1cn(-c2ccc(N3CCNCC3)cc2)nc1C(F)F)c1cccc(C(F)(F)F)n1
EXPERIMENTAL TARGET: IRAK4 (Homo sapiens, UniProt Q9NWZ3)
pIC50: > 7.00
--
MOLECULE: CC(C)n1nc(-c2ccccc2)nc1NC(=O)c1cccc(C(F)(F)F)n1
EXPERIMENTAL TARGET: IRAK4 (Homo sapiens, UniProt Q9NWZ3)
pIC50: < 6.00
--
MOLECULE: O=C(Nc1cn(-c2ccccc2)nc1C(=O)NC1CC1(F)F)c1cccc(-c2ccn[nH]2)n1 (centres unmarked)
EXPERIMENTAL TARGET: IRAK4 (Homo sapiens, UniProt Q9NWZ3)
pIC50: > 7.00
--
MOLECULE: O=C(Nc1cn(-c2ccccc2)nc1C(F)F)c1cccc(-c2ccn[nH]2)n1
EXPERIMENTAL TARGET: IRAK4 (Homo sapiens, UniProt Q9NWZ3)
pIC50: > 7.00
--
MOLECULE: CC(C)(O)c1nn(C2CC3(CCNCC3)C2)cc1NC(=O)c1ccc2cc(C#N)cnn12
EXPERIMENTAL TARGET: IRAK4 (Homo sapiens, UniProt Q9NWZ3)
pIC50: > 7.00
--
MOLECULE: NC(=O)c1nn(C2CCN(CCN3CCN(c4ccc5c(c4)C(=O)N(C4CCC(=O)NC4=O)C5=O)CC3)CC2)cc1NC(=O)c1cccc(C(F)(F)F)n1 (centres unmarked)
EXPERIMENTAL TARGET: IRAK4 (Homo sapiens, UniProt Q9NWZ3)
pIC50: 6.00 to 7.00
--
MOLECULE: O=C(Nc1cn(-c2ccccc2)nc1C1CC(O)C1)c1cccc(C(F)(F)F)n1 (centres unmarked)
EXPERIMENTAL TARGET: IRAK4 (Homo sapiens, UniProt Q9NWZ3)
pIC50: < 6.00
--
MOLECULE: CC(C)NS(=O)(=O)c1nn(-c2ccccc2)cc1NC(=O)c1cccc(-c2ccn[nH]2)n1
EXPERIMENTAL TARGET: IRAK4 (Homo sapiens, UniProt Q9NWZ3)
pIC50: 6.00 to 7.00
--
MOLECULE: O=C(Nc1cn(-c2ccccc2)nc1C(=O)C(F)(F)F)c1cccc(-c2ccn[nH]2)n1
EXPERIMENTAL TARGET: IRAK4 (Homo sapiens, UniProt Q9NWZ3)
pIC50: > 7.00
--
MOLECULE: NC(=O)c1nn(-c2ccc(C(=O)O)c(F)c2)cc1NC(=O)c1cccc(C(F)(F)F)n1
EXPERIMENTAL TARGET: IRAK4 (Homo sapiens, UniProt Q9NWZ3)
pIC50: 6.00 to 7.00
--
MOLECULE: O=C(Nc1cn(-c2ccccc2)nc1C1CC1)c1cccc(C(F)(F)F)n1
EXPERIMENTAL TARGET: IRAK4 (Homo sapiens, UniProt Q9NWZ3)
pIC50: < 6.00
--
MOLECULE: NC(=O)c1nn(-c2cnc(Br)cn2)cc1NC(=O)c1cccc(C(F)(F)F)n1
EXPERIMENTAL TARGET: IRAK4 (Homo sapiens, UniProt Q9NWZ3)
pIC50: < 6.00
--
MOLECULE: NCc1ccc(-n2cc(NC(=O)c3cccc(C(F)(F)F)n3)c(C(N)=O)n2)cc1
EXPERIMENTAL TARGET: IRAK4 (Homo sapiens, UniProt Q9NWZ3)
pIC50: > 7.00
--
MOLECULE: CC(C)(O)c1nn(-c2ccccc2)cc1NC(=O)c1cccc(-c2ccn[nH]2)n1
EXPERIMENTAL TARGET: IRAK4 (Homo sapiens, UniProt Q9NWZ3)
pIC50: > 7.00
--
MOLECULE: NC(=O)c1nn(-c2ccc(N3CCNCC3)cc2)cc1NC(=O)c1cccc(C(F)(F)F)n1
EXPERIMENTAL TARGET: IRAK4 (Homo sapiens, UniProt Q9NWZ3)
pIC50: > 7.00
--
MOLECULE: NC(=O)c1nn(-c2cncnc2)cc1NC(=O)c1cccc(C(F)(F)F)n1
EXPERIMENTAL TARGET: IRAK4 (Homo sapiens, UniProt Q9NWZ3)
pIC50: 6.00 to 7.00
--
MOLECULE: [2H]C([2H])C(=O)c1nn(-c2ccccc2)cc1NC(=O)c1cccc(-c2ccn[nH]2)n1
EXPERIMENTAL TARGET: IRAK4 (Homo sapiens, UniProt Q9NWZ3)
pIC50: > 7.00
--
MOLECULE: CNCc1ccc(-n2cc(NC(=O)c3cccc(C(F)(F)F)n3)c(C(N)=O)n2)cc1
EXPERIMENTAL TARGET: IRAK4 (Homo sapiens, UniProt Q9NWZ3)
pIC50: > 7.00
--
MOLECULE: NC(=O)c1nn(C23CC(C2)C3)cc1NC(=O)c1cccc(C(F)(F)F)n1
EXPERIMENTAL TARGET: IRAK4 (Homo sapiens, UniProt Q9NWZ3)
pIC50: 6.00 to 7.00
--
MOLECULE: NC(=O)c1nn(-c2ccc(O)cc2)cc1NC(=O)c1cccc(C(F)(F)F)n1
EXPERIMENTAL TARGET: IRAK4 (Homo sapiens, UniProt Q9NWZ3)
pIC50: > 7.00
